Numbers sourced from patent US20100298377A1.

# System: MCF7 cells (human breast carcinoma cells)
# RUN DESCRIPTION: Proliferation of MCF7 cells, intracellular ATP, CellTiter-Glo test
# Type: cell-based
# CONDITION NOTES: Homo sapiens, MCF7, 96 hours
pIC50: −log10 of the molar value.
QUANTITY NAME: pIC50

O=C(Nc1ccc2[nH]ncc2c1)O[C@@H](c1cccc(Br)c1)[C@@H]1CCCCN1 = 5.89
O=C(Nc1ccc2[nH]ncc2c1)N[C@@H](c1cc(F)cc(Cl)c1)[C@@H]1CCCCN1 = 5.96
O=C(Nc1ccc2[nH]ncc2c1)NC(c1cc(F)cc(Cl)c1)C1CCCCN1 (stereo not drawn) = 5.85
O=C(Nc1ccc2[nH]ncc2c1)O[C@@H](c1cc(F)cc(Cl)c1)[C@@H]1CCCCN1 = 5.98
O=C(Nc1ccc2[nH]ncc2c1)N[C@@H](c1ccc(Cl)c(Cl)c1)[C@@H]1CCCCN1 = 5.57
S=C(Nc1ccc2[nH]ncc2c1)N[C@@H](c1ccc(Cl)c(Cl)c1)[C@@H]1CCCCN1 = 5.35

(A) Cc1n[nH]c2ccc(NC(=O)NC(c3ccccc3)C3CCCCN3C)cc12 (stereo not drawn)
(B) O=C(Nc1ccc2[nH]ncc2c1)O[C@@H](c1ccc(Cl)c(Cl)c1)[C@@H]1CCCCN1 [Ex 38b]
(C) CN1CCCCC1C(NC(=O)Nc1ccc2[nH]nc(C#Cc3cccnc3)c2c1)c1ccccc1 (stereo not drawn)
Task item: Please give the order of these compounds when sorted by pIC50, largest value leading. Dear reader, please state the labels in the requested order.
Reply: C, B, A
